System: MDA-MB-435 melanoma
assayOverview: NCI-60 one-dose screen, 48 h (100 = growth as untreated, 0 = no growth, -100 = all killed)
assaySetup: 10 µM unless noted
About 83,000 compounds went through this panel and 20% of them were active in at least one assay; those are over-represented in the sample as a whole.
Threshold 70%. growth below it: yes (1). growth at it or above: no (0).

Examples from the recorded data:
O=C(Nc1ccc(OS(=O)(=O)c2ccc(F)cc2)cc1)C1CCCCCC1
no (0)
Nc1ncnc2c1N=C(c1ccc(Br)cc1)CC(c1cccc(Nc3ccnc4cc(C(F)(F)F)ccc34)c1)N2 (configuration not stated)
yes (1)

Q: Lab note: confirm whether the reported growth for this compound is below 70%, equality not counting. compound: Cc1cc(S(=O)(=O)/N=C(\N)n2nc(C)c(C)c2C)c(SCc2ccccc2)cc1Cl
A: yes (1)

Q: Item CS(=O)(=O)Nc1cncc(-c2ccc3ncnc(Nc4cncc(Cl)c4)c3c2)c1 : growth beneath 70%, strictly?
A: no (0)

Q: is_below(growth, 70%) for CSc1oc(C)nc1[P+](c1ccccc1)(c1ccccc1)c1ccccc1 ?
A: yes (1)

----------
Tested on: HCC-2998 colon
assayOverview: NCI-60 one-dose screen, 48 h (100 = growth as untreated, 0 = no growth, -100 = all killed)
assaySetup: 10 µM unless noted
Experimental: Growth inhibition of the HCC-2998 human tumor cell line is measured as a screen for anti-cancer activity. Cells are grown in 96 well plates and exposed to the test compound for 48 hours. Compounds are tested at a single concentration, which is 10^-5 M for most compounds. The reported endpoint is percent growth (GI% or GIPRCNT), where numbers from 0 - 100% represent growth inhibition, and numbers from -100% - 0 represent cell death. For example, a value of 40 represents 60% growth inhibition. […]
About 83,000 compounds went through this panel and 20% of them were active in at least one assay; those are over-represented in the sample as a whole. Activity calls are given as the source filed them. The calls were made as follows: active = growth percent below 10; inactive = the rest.
endpointName: growth

Consider the reported growth for these compounds:
CCOC(=O)C1=C(c2ccccc2)N=C2SC=C(c3ccc(Cl)cc3)N2C1c1ccc(Br)cc1 (centres undefined)
90.5% (inactive)
CCCCn1c(=O)[nH]c(N)c([C@@H]2c3c([nH]c(=O)n(CCCC)c3=O)Oc3ccc4ccccc4c32)c1=O
83.3% (inactive)
COc1cc(C2CC(c3ccc(Nc4nc(Nc5ccc(Cl)cc5)nc(Nc5ccc(Cl)cc5)n4)cc3)=NN2C(C)=O)cc(OC)c1OC (centres undefined)
100% (inactive)
N#CC1=C(N)Oc2c(c(=O)[nH]c3ccc(Cl)cc23)C12C(=O)c1ccccc1C2=O
109% (inactive)
O=C(Nc1ccc(Oc2cccc(Cl)c2)c(Cl)c1)c1cccnc1
58% (inactive)

Value sought for every listed compound: growth.
1. O=C(CN1CCCCC1)Nc1nc(-c2cc3ccccc3oc2=O)cs1
2. CC/C(=C(/c1ccc(Cl)cc1)c1ccc(OCCN(C)C)cc1)c1ccc(Cl)cc1
3. N#CC1=C(c2ccccc2)Nc2c(c(-c3ccc(Cl)cc3)nn2-c2ccccc2)C12C(=O)Nc1ccc(Cl)cc12 (centres undefined)
4. COC(=O)CC[C@H](C)[C@H]1CC[C@H]2[C@@H]3CC[C@@H]4CC5(CC[C@]4(C)[C@H]3CC(=O)[C@]12C)Nc1ccccc1NC5=NC(C)(C)C (some centres undefined)
5. COc1ccc(-c2nc3cc(C(=O)NCc4ccccc4)ccc3n2C2CCCCC2)cc1
6. CCCNC(=O)Nc1ccc2cc3ccc(NC(=O)NCCC)cc3nc2c1
7. COC(=O)c1c2c(c(C)[n+]([O-])c1C)C(=O)C(NCc1cccc(OC)c1)=CC2=O
8. COc1cc(C2c3cc(OC(C)=O)c(OC)cc3CC3C(=O)OCC32)ccc1OC(C)=O (centres undefined)

A:
["104% (inactive)", "46.9% (inactive)", "90.6% (inactive)", "107% (inactive)", "79.3% (inactive)", "98.4% (inactive)", "22.3% (inactive)", "104% (inactive)"]

----------
Tested on: SF-539 CNS
assayOverview: NCI-60 one-dose screen, 48 h
assaySetup: 10 µM unless noted
Method: Cells are grown in 96 well plates and exposed to the test compound for 48 hours. Compounds are tested at a single concentration, which is 10^-5 M for most compounds. The reported endpoint is percent growth (GI% or GIPRCNT), where numbers from 0 - 100% represent growth inhibition, and numbers from -100% - 0 represent cell death. For example, a value of 40 represents 60% growth inhibition. A value of 0 means no net growth occurred over the course of the experiment. […]
Compounds without any hit were thinned out: in the full panel of roughly 83,000, 20% have a hit. The source made the active and inactive calls. Rule for the calls: active = growth percent below 10; inactive = the rest.
Hi! Could you answer with just one of these? T = active, F = inactive

O=C(Nn1c2c(sc1=NC1CC1)C(=O)c1ccccc1C2=O)c1cc2ccc1CCc1ccc(cc1)CC2
T
N#Cc1ccc(O)c(C2=NCC(c3cccc(Oc4ccccc4)c3)O2)c1 (centres undefined)
F
CCOC(=O)c1csc(NC(=O)COc2ccc(/C=C3\Oc4ccccc4C3=O)cc2)n1
F
O=C(c1ccncc1)N1N=C(c2ccc(Cl)cc2)C[C@H]1c1cn(-c2ccccc2)nc1-c1ccccc1
F
O=S(=O)(Nc1cc(F)cc(Cl)c1)c1ccc(-c2cnc(C3CC3)o2)cc1
T
CSc1nc2ncc([N+](=O)[O-])c(=O)n2[nH]1
F
CC(C)C1=NOC(=O)C1=Cc1cn(-c2ccccc2)nc1-c1ccc(F)cc1
F
CCCC/C(CC)=N\NS(=O)(=O)c1ccc([N+](=O)[O-])cc1
F

Q: Tell me the recorded outcome of this test for N#CC(C#N)N=Nc1ccc(Br)cc1 .
A: F

Q: Hey, what did the test say about CCCCNC(=O)Oc1ccc(/C(=C(/C)Cc2ccc(OC)cc2)c2ccc(OCCN3CCCC3)cc2)cc1 ?
A: F

Q: Could you kindly confirm the outcome this assay logged for CC(C)COc1nc2c(c(=O)n(C)c(=O)n2C)n1C ?
A: F

Q: Test call, this compound: C[PH+](c1nc2ccccc2nc1[PH+](C)C(C)(C)C)C(C)(C)C.C[PH+](c1nc2ccccc2nc1[PH+](C)C(C)(C)C)C(C)(C)C.[Au+].[Cl-] (centres undefined)
A: T

Q: Recorded test outcome, item COc1ccc(C2CC(c3ccc(Nc4nc(Nc5ccccc5)nc(Nc5ccccc5)n4)cc3)=NN2C(C)=O)cc1 (centres undefined)
A: F

Q: Could you kindly confirm the outcome this assay logged for Nc1c(C(=O)Nc2ccccc2F)sc2nc3c(cc12)CCCC3 ?
A: T

Q: Hi, sorry to bother you, what did the test record for O=c1[nH]c(-c2ccccc2)nc2sc3cc(O)ccc3c12 ?
A: F

Q: Which result was noted for this compound in the test: CC1CN(S(=O)(=O)c2oc(-c3ccc(Cl)cc3)nc2C#N)CC(C)O1 (centres undefined)
A: F

Q: Query: recorded result category for COc1ccc(/C=C/C(=O)c2ccc(Nc3ccnc4cc(Cl)ccc34)cc2)cc1 in this test
A: F

Q: # fetch the recorded call for CN(C)CCNC(=O)c1ccc(-c2nc3ccc4[nH]ncc4c3c3c2C2CCC3C2)cc1 (centres undefined) here
A: F

Q: Could you check what this test reported for O=C1NC(=C(Cl)Cl)/C(=N\S(=O)(=O)NCc2ccccc2)N1 ?
A: F

Q: Look up the recorded call for Fc1cnccc1C1CC(c2ccc(N3CCNCC3)cc2)=NN1 (centres undefined) in this test.
A: F

Q: Please share the test call associated with Cc1ccc(NC(=O)c2sc3nc(C)c(Br)c(C)c3c2N)cc1 .
A: F

Q: Query: recorded result category for COc1ccc(/C=N\Nc2nc(SCCC(C)C)nc(-c3ccc(OC)cc3)c2C#N)cc1 in this test
A: F

Q: Tell me the assay call for c1ccc(Cn2cc3c(c2)-c2oncc2CC3)cc1 please.
A: T

Q: Recorded test call requested for Cc1ccc2c(n1)C(=O)C(Br)=C(C1CCCC1)C2=O
A: F

----------
System: MOLT-4 leukemia
assayOverview: NCI-60 one-dose screen, 48 h (100 = growth as untreated, 0 = no growth, -100 = all killed)
assaySetup: 10 µM unless noted
Description: Growth inhibition of the MOLT-4 human tumor cell line is measured as a screen for anti-cancer activity. Cells are grown in 96 well plates and exposed to the test compound for 48 hours. Compounds are tested at a single concentration, which is 10^-5 M for most compounds. The reported endpoint is percent growth (GI% or GIPRCNT), where numbers from 0 - 100% represent growth inhibition, and numbers from -100% - 0 represent cell death. For example, a value of 40 represents 60% growth inhibition. […]
This is part of a sample that, as a whole, favours compounds with a hit. Of some 83,000 tested, about 20% had one in any assay.
endpointName: growth (%)
One number for each entry, in %.

CCSc1nc2scc(C)c2c(=O)[nH]1
96
Nc1ncnc2c1C(c1ccccc1)c1ccc3ccccc3c1O2 (stereo not given)
68.4
CC1CCN(S(=O)(=O)c2ccc(S(=O)(=O)N3CCCC(c4nc5c(nnn5Cc5cccc(Cl)c5)c(=O)[nH]4)C3)cc2)CC1 (stereo not given)
19.2
CC(C)c1ccc(Cc2cnc(NC(=O)c3cc(Br)cs3)s2)cc1
43.2

Quick request: growth for each listed item, please.
1. CN(C)Cc1ccc(O)c(C(=O)O)c1
2. CCOC(=O)c1c(NC(=O)c2cccc(C(F)(F)F)c2)sc2c(CN(C)C)c(O)ccc12
3. COc1cc2c(c(OC)c1OC)CCC(c1cccc(NC(=O)c3ccc(Br)cc3)c1)O2 (stereo not given)
4. COc1ccc(/C=C(\C#N)n2nnc3ccc(Cl)cc32)cc1

A:
101
43.4
41.1
83.7

List growth for every entry below, keeping the order given.
1. O=C1/C(=C/c2cccc(F)c2)CN(C(=O)C(Cl)Cl)C/C1=C\c1cccc(F)c1
2. CC1=C2[C@@H](CC1)[C@]1(C)O[C@@](C(C)C)(C[C@H]1OC(=O)[C@H](C)O)[C@H]2OC(=O)/C=C/c1ccccc1

A:
1. -23.3
2. 62.8
